study_system: Histone-lysine N-methyltransferase 2A (Homo sapiens) (UniProt Q03164)
Sequence (Q03164 whole entry, looked up, the tested form may be a part): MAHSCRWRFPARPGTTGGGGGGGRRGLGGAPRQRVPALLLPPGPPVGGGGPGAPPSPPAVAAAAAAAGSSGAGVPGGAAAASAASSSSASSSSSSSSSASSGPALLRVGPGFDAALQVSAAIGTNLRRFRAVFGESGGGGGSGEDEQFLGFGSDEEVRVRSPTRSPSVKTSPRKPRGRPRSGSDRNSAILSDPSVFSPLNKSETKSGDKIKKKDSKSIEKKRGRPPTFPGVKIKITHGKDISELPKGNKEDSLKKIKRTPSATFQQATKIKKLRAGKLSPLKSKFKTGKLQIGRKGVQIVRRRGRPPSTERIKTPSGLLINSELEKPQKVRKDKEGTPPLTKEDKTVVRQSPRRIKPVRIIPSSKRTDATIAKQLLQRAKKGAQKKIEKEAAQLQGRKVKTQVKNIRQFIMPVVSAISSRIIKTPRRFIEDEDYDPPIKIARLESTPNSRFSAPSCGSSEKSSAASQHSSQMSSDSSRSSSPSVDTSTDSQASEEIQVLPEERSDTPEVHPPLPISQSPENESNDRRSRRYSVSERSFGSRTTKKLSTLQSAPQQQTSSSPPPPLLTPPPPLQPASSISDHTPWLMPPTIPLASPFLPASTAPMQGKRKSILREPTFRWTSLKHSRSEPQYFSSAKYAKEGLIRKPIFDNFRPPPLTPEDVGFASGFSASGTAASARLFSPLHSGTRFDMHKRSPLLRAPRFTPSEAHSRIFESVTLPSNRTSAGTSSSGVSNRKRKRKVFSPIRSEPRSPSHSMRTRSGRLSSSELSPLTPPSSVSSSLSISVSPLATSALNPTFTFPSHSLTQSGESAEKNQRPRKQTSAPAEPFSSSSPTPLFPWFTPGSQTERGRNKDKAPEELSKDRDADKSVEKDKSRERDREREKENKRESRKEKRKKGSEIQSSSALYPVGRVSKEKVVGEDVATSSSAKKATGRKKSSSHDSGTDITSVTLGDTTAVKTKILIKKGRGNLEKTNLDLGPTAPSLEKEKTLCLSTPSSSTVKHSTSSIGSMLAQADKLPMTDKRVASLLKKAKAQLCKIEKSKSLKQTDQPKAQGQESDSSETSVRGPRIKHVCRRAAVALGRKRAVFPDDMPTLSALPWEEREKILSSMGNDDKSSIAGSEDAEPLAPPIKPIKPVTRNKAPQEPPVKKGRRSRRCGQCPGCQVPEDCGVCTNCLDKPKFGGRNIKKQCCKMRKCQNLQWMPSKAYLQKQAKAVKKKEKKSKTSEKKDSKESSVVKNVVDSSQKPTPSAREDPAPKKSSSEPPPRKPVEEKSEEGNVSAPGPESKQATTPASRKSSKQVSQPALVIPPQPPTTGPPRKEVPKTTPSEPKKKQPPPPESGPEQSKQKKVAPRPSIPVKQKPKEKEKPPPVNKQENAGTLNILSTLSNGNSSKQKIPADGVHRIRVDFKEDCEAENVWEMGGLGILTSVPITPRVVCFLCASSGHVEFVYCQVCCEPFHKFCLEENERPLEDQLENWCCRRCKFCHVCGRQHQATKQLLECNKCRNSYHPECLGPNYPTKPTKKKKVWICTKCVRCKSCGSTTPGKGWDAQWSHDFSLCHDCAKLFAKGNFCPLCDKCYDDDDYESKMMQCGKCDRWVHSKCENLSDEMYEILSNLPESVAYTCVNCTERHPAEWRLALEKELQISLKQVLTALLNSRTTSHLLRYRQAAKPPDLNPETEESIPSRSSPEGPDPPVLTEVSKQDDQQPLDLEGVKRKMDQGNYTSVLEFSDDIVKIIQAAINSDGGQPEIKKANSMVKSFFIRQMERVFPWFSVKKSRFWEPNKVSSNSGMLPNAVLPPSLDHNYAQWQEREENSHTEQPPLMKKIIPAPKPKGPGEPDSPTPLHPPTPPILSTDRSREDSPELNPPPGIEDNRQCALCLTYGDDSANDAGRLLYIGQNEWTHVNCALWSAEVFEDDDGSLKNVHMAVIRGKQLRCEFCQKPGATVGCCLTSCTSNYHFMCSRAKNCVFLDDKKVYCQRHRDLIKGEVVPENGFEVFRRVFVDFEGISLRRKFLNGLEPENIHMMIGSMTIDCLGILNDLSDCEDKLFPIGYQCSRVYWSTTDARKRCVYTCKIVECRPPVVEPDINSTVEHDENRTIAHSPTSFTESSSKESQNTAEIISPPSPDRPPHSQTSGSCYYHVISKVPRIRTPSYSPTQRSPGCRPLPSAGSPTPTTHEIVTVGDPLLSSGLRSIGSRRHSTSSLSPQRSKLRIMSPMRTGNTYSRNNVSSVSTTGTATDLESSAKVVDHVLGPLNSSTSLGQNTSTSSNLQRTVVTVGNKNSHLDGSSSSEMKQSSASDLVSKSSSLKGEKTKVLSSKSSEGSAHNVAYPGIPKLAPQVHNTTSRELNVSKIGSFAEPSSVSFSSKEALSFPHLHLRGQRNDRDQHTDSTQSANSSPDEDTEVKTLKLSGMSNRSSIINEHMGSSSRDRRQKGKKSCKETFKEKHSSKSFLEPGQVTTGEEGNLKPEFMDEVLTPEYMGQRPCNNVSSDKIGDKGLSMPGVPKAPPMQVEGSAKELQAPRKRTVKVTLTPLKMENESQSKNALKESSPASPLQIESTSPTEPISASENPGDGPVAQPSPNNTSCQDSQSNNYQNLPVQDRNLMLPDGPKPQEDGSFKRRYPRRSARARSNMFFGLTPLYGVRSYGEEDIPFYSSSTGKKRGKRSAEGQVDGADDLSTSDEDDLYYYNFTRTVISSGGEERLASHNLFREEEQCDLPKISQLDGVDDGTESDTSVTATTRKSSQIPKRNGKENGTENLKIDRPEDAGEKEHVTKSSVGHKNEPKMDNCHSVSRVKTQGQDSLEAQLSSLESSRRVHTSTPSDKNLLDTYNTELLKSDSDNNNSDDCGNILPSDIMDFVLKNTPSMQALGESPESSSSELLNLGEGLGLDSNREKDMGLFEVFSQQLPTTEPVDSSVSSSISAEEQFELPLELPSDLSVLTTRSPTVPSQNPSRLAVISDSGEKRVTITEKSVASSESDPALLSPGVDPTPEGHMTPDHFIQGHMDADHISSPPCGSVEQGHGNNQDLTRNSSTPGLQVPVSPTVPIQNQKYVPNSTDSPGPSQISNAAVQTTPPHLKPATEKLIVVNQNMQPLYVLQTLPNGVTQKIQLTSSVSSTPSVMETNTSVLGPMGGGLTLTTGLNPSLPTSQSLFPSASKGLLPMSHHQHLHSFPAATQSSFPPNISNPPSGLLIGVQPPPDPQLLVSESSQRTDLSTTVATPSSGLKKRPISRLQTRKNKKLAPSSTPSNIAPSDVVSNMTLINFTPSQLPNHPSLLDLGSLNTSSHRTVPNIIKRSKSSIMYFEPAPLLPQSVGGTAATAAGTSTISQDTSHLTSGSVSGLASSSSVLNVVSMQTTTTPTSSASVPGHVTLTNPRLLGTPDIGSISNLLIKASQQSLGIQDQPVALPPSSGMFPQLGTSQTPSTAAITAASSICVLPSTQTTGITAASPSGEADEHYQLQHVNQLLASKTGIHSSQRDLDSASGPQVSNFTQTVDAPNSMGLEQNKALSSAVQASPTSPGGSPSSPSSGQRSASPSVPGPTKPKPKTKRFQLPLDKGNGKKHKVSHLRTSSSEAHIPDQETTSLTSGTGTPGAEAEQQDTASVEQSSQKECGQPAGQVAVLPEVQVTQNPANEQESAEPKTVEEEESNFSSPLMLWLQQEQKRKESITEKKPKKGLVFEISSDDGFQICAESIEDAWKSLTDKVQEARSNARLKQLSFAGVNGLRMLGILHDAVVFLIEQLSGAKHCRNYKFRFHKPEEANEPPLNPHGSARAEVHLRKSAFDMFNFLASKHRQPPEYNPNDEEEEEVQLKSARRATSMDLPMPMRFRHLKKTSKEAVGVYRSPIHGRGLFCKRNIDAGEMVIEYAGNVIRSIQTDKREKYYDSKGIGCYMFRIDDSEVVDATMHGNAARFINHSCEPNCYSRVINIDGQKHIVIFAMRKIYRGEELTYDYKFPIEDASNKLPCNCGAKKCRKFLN
test_method_notes: qHTS Fluorescence Polarization Assay for Inhibitors of MLL CXXC domain - DNA interaction
condition_info: MLL-CXXC / FITC-HOXA9 DNA fluorescence polarization; series mostly up to 115 µM
Out of some 290,000 compounds screened, about 110 (0.038%) were called active. Not shown: some 3% with an inconclusive outcome. The full list was thinned out, with actives kept by preference.
reported_endpoint: outcome

>>> reported_value("Cc1cc(N=Nc2ccc3ccccc3c2)ccc1O")
"inactive"
>>> reported_value("S=C(Nc1ccc(Cl)cc1Cl)N1CCCC1")
"inactive"
>>> reported_value("COc1ccc(C(=O)CCC(=O)Nc2cccnc2)c(OC)c1")
"inactive"
>>> reported_value("O=C(NCc1ccncc1)C1CCN(C(=O)c2cccc(Cl)c2)CC1")
"inactive"
>>> reported_value("Cc1cccc(C)c1NC(=O)CS(=O)CC(=O)N1CCN(c2ccccc2)CC1 (configuration not stated)")
"inactive"
>>> reported_value("O=C(CCn1nnc2ccccc21)OCC(=O)c1ccc([N+](=O)[O-])cc1")
"inactive"
>>> reported_value("Cc1cccc(CN2CCC(n3nccc3NC(=O)c3ccccc3C)CC2)n1")
"inactive"
>>> reported_value("COCCCN1C(=O)C(=O)/C(=C(/O)c2ccc(S(=O)(=O)N3CCOCC3)cc2)C1c1ccc(F)cc1 (configuration not stated)")
"inactive"
>>> reported_value("O=C(NCCN1CCOC1=O)C1CCC(=O)N(CCc2ccc(Cl)cc2)C1 (configuration not stated)")
"inactive"
>>> reported_value("Cc1cccc(N(C)C(=O)CN2C(=O)COc3ccc(S(=O)(=O)N4CCCCCC4)cc32)c1")
"inactive"
>>> reported_value("Cc1ccc(/C=C2/SC(=S)N(CCC(=O)NCCCN3CCOCC3)C2=O)cc1")
"inactive"
>>> reported_value("O=S1(=O)CCO[C@H]2Cc3ccccc3[C@H]2N1Cc1ccccc1")
"inactive"

Reference source for all entries: PubChem BioAssay AID2662
